- Assay Remarks: qHTS for compounds that reverse cellular toxicity of Amyloid beta (A-beta) peptide in yeast: Primary Screen; also: nearly all actives have a fitted effect of over 55% in size
- Settings: yeast expressing A-beta42, growth rescue, OD600, 48 h; series mostly up to 46.1 µM
About 260 (0.063%) of roughly 410,000 compounds were called active. Another 2% or so got no clear call; they are omitted. This is one part of a sample in which actives are shown more often than they occur.
Parameter Measured: outcome

Compound | Parameter Measured | Test Result
Cc1c(-c2nc(-c3ccc4c(c3)OCO4)no2)nnn1-c1ccc(Br)cc1F | outcome | inactive
CCOC(=O)c1ccccc1NC(=O)c1nn(-c2ccc(OC)c(Cl)c2)c(=O)c2c1c1ccccc1n2C | outcome | inactive
Cc1ccc([C@H]2N[C@]3(CCCN(Cc4ccccc4)C3=O)[C@H]3C(=O)N(Cc4ccccc4)C(=O)[C@@H]23)cc1 | outcome | inactive
COc1ccc(CCNC(=O)Cn2c(=O)n(-c3ccccc3)c(=O)c3c(C)c(C)sc32)cc1OC | outcome | inactive
COc1ccccc1NC(=O)c1sc2nc(C)c(C(=O)Nc3ccc(Cl)cc3)c(-c3ccc(Br)cc3)c2c1N | outcome | inactive

For every item in the list below, what is its measured outcome?
1. COc1ccc(CN2CCc3nc(Nc4ccccc4)ncc3C2)c(OC)c1OC
2. Cc1c(Cl)cccc1NC(=S)N(Cc1ccccc1)Cc1cccnc1
3. CCN1C(=O)[C@H]2[C@@H](c3ccc(C(F)(F)F)cc3)N[C@]3(CCCN(Cc4ccc(Br)cc4)C3=O)[C@H]2C1=O
4. CCCn1c2ccccc2c2cnn(CC(=O)N3CCCC(C(=O)OCC)C3)c(=O)c21 (centres undefined)

1: inactive; 2: inactive; 3: inactive; 4: inactive
